Test system: Listeria monocytogenes ATCC 19115
Test: Experiment 2: octanoate esterase substrates with different Indoxyl-based chromogenic markers
Type: cell-based
Details: IT 24 h, 37° C., substrate 250 mg/l
Description: In Table 1 above, as in the following Tables, C represents the color of the colonies after incubation, I represents the intensity of the color, and the symbol “-” corresponds to the absence of color or intensity; finally, IT defines the incubation time. It should be noted that the intensity of the color is scored on an arbitrary scale but one which is consistent for all the biological specimens and media tested. This scale is valid for this experiment as well as all those that follow. […]
READOUT: C (color of the colonies)

Query: Look up C (color of the colonies): CCCCCCCC(=O)Oc1c[nH]c2ccc(Br)cc12 [Blue-C8, 5-Bromo-3-indolyl octanoate]
Response: gray

Query: Look up C (color of the colonies): CCCCCCCC(=O)Oc1c[nH]c2cc(Cl)ccc12 [Pink-C8, 6-Chloro-3-indolyl octanoate]
Response: pink
